Experiment notes: unspecified inhibition readout at 50 µM (AID 740)
Reported conditions: unspecified screen
Screen size: about 96,000 compounds; about 65 (0.07%) were called active. Rule as the data show it: active = inhibition above about 25%; inactive = the rest. What follows is part of a selection rich in actives, with near analogues and random picks from the rest.
Permitted responses: yes (1) (active), no (0) (inactive)

[Q] What outcome does the record of this test show for "CNS(=O)(=O)c1cccc(C(=O)Nc2cccc(Cl)c2)c1" ?
[A] no (0)

[Q] What outcome does the record of this test show for "O=C1NCCCc2c1oc1cc(Br)c(O)c(Br)c21" ?
[A] no (0)

[Q] What outcome does the record of this test show for "CCCN(CCC)C(=O)Cn1c(=O)n(CCCCC(=O)NC2CCCC2)c(=O)c2ccccc21" ?
[A] no (0)

[Q] What outcome does the record of this test show for "O=C(Nc1cccc(O)c1)c1noc2c1CCc1ccccc1-2" ?
[A] yes (1)

[Q] What outcome does the record of this test show for "Cc1cc(NC(=O)c2noc3c2CCc2ccccc2-3)no1" ?
[A] no (0)

[Q] What outcome does the record of this test show for "O=C1NCCCc2c1oc1ccc(O)cc21" ?
[A] yes (1)

[Q] What outcome does the record of this test show for "COC(=O)CSc1nnc([C@H](Cc2ccccc2)NC(=O)OC(C)(C)C)o1" ?
[A] no (0)

[Q] What outcome does the record of this test show for "CC(C)(C)OC(=O)NCCc1nnc(SCC(=O)c2ccc(Cl)cc2)o1" ?
[A] no (0)

[Q] What outcome does the record of this test show for "O=c1[nH]c2cccnc2n1Cc1ccccc1" ?
[A] yes (1)

[Q] What outcome does the record of this test show for "Cc1ccc(NC(=O)c2noc3c2CCc2ccccc2-3)cc1" ?
[A] no (0)

[Q] What outcome does the record of this test show for "COc1ccc(S(=O)(=O)Nc2cc(C)c(O)cc2C(C)C)cc1" ?
[A] no (0)

[Q] What outcome does the record of this test show for "Oc1ccc2oc3c(c2c1)CCCC3" ?
[A] no (0)

* * *

Experiment notes: unspecified inhibition readout at 50 µM (AID 740)
Reported conditions: unspecified screen
About 65 (0.07%) of roughly 96,000 compounds were called active. Rule as the data show it: active = inhibition above about 25%; inactive = the rest. For the sample, actives were picked, then their nearest neighbours and some compounds at random.
Permitted responses: Y (active), N (inactive)

[Q] What outcome does the record of this test show for "CCc1nnc(NC(=O)CSc2nnc(CNc3ccc(F)cc3)n2C2CCCCC2)s1" ?
[A] N

[Q] What outcome does the record of this test show for "O=C(Nc1ccc(-c2nnc(-c3ccco3)o2)cc1)C(c1ccccc1)c1ccccc1" ?
[A] N

[Q] What outcome does the record of this test show for CC(NC(=O)C1CCCN1S(=O)(=O)c1cccc2cccnc12)c1ccccc1 (stereo not given) ?
[A] N

[Q] What outcome does the record of this test show for "O=C(COc1ccccc1)Nc1ccc(-c2nnc(-c3ccco3)o2)cc1" ?
[A] N

[Q] What outcome does the record of this test show for "Cn1nc([N+](=O)[O-])nc1Sc1nnc(-c2ccccc2)o1" ?
[A] Y

[Q] What outcome does the record of this test show for "Nc1nc(Nc2cccc(C(F)(F)F)c2)nc(C(F)(F)F)n1" ?
[A] N

[Q] What outcome does the record of this test show for "O=C(Nc1ccccc1-c1ccccc1)c1ccc(NC(=O)c2ccco2)cc1" ?
[A] Y

[Q] What outcome does the record of this test show for "Cc1ccccc1NC(=O)c1ccc(NC(=O)c2ccco2)cc1" ?
[A] N

[Q] What outcome does the record of this test show for "COc1ccccc1-c1nnc(Sc2nc([N+](=O)[O-])nn2C)o1" ?
[A] N

[Q] What outcome does the record of this test show for "CCOc1ccc(NCc2nnc(SCC(=O)Nc3cc(C)on3)n2-c2ccc(OC)cc2)cc1" ?
[A] N

* * *

Experiment notes: unspecified inhibition readout at 50 µM (AID 740)
Reported conditions: unspecified screen; stronger effect = higher value
The whole screen tested about 96,000 compounds, of which about 65 (0.07%) were called active. The sample as a whole holds a higher share of actives than the screen did.
Measured metric: inhibition

Worked examples, 10 compounds total:
{"Compound": "O=C1CSC(=S)N1Cc1cccnc1", "Measured metric": "inhibition", "Data value": "28.6% (active)"}
{"Compound": "CC(=O)Nc1cc(-c2nn(C)c(=O)c3ccccc23)ccc1N1CCCCC1", "Measured metric": "inhibition", "Data value": "inactive"}
{"Compound": "C=CCNC(=S)Nc1cccc2ccccc12", "Measured metric": "inhibition", "Data value": "0.02% (inactive)"}
{"Compound": "CC(c1ccco1)N(C(=O)COc1ccccc1[N+](=O)[O-])c1ccccn1 (stereo not drawn)", "Measured metric": "inhibition", "Data value": "0.73% (inactive)"}
{"Compound": "CCOC(=O)c1cnn(-c2ccccc2)c1-n1cccc1C(=O)C(=O)Nc1ccc(F)cc1", "Measured metric": "inhibition", "Data value": "0.4% (inactive)"}
{"Compound": "CCS(=O)(=O)Nc1ccc(-c2ccc(NS(=O)(=O)CC)c(OC)c2)cc1OC", "Measured metric": "inhibition", "Data value": "0.7% (inactive)"}
{"Compound": "COc1ccc(C(=O)CSc2nc(C)cc(=O)[nH]2)cc1", "Measured metric": "inhibition", "Data value": "inactive"}
{"Compound": "CC(C)c1ccc(C(=O)N(c2ccccn2)C(C)c2ccco2)cc1 (stereo not drawn)", "Measured metric": "inhibition", "Data value": "4.01% (inactive)"}
{"Compound": "CCCCCn1c(=O)c(C(=O)Nc2c(C)n(C)n(-c3ccccc3)c2=O)c(O)c2ccccc21", "Measured metric": "inhibition", "Data value": "34.4% (active)"}
{"Compound": "COCCSc1ccccc1C(=O)N1CCOCC1", "Measured metric": "inhibition", "Data value": "inactive"}

[Q] Look up inhibition of "COC(=O)Cn1cc(C(=O)OC)c2ccccc21" and report it.
[A] inactive

[Q] Look up inhibition of CC(NC(=O)c1ccc(F)cc1)c1ccccc1 (stereo not drawn) and report it.
[A] 1.4% (inactive)

[Q] Look up inhibition of CC(c1ccco1)N(C(=O)Nc1ccc(Cl)cc1)c1ccccn1 (stereo not drawn) and report it.
[A] inactive

[Q] Look up inhibition of "O=C(O)c1ccc(CN2C(=O)CSC2=S)cc1" and report it.
[A] inactive

[Q] Look up inhibition of COc1ccccc1NC(=O)C1CC(=O)OC1c1ccccc1 (stereo not drawn) and report it.
[A] inactive

[Q] Look up inhibition of Cc1cc(C)cc(C(=O)N(c2ccccn2)C(C)c2ccco2)c1 (stereo not drawn) and report it.
[A] 0.71% (inactive)

[Q] Look up inhibition of O=C(NCCc1cccs1)C1CC(c2ccc([N+](=O)[O-])cc2)=NO1 (stereo not drawn) and report it.
[A] 1.33% (inactive)

[Q] Look up inhibition of "O=C1CSC(=S)N1c1cccnc1" and report it.
[A] inactive

[Q] Look up inhibition of "O=C(CN(Cc1ccco1)C(=O)c1cc(=O)[nH]c2ccccc12)Nc1ccccc1Br" and report it.
[A] 0.68% (inactive)

[Q] Look up inhibition of "Cc1cc(C(=O)Nc2c(C)n(C)n(-c3ccccc3)c2=O)cs1" and report it.
[A] 28.9% (active)

[Q] Look up inhibition of "Cc1c(NC(=O)c2cccc(F)c2)c(=O)n(-c2ccccc2)n1C" and report it.
[A] inactive

[Q] Look up inhibition of "CCCCn1c(=O)c(C(=O)Nc2cnccn2)c(O)c2ccccc21" and report it.
[A] 1.68% (inactive)

[Q] Look up inhibition of "CCn1c(N2CCN(CC(=O)c3c[nH]c4ccccc34)CC2)nc2c1c(=O)[nH]c(=O)n2C" and report it.
[A] 0.91% (inactive)

* * *

Experiment notes: unspecified inhibition readout at 50 µM (AID 740)
Reported conditions: unspecified screen; stronger effect = higher value
Hit rate of the full screen: of about 96,000 compounds, about 65 (0.07%) were called active. The sample as a whole holds a higher share of actives than the screen did.
Measured metric: inhibition

[Q] Look up inhibition of CCOC(=O)C1=C(C)Nc2nc(SC)nn2C1c1ccc(C(=O)OC)cc1 (stereo unspecified) and report it.
[A] 0.25% (inactive)

[Q] Look up inhibition of "CN(C)c1cccc(C(=O)Nc2ccc3nc4n(c(=O)c3c2)CCCCC4)c1" and report it.
[A] 26.5% (active)

[Q] Look up inhibition of "COc1ccccc1Cn1c(=O)c2ccccc2n2c(Sc3ncnc4sccc34)nnc12" and report it.
[A] 65.1% (active)

[Q] Look up inhibition of "O=c1[nH]nc(Sc2ncnc3sccc23)n1CCc1ccccc1" and report it.
[A] 9.99% (inactive)

[Q] Look up inhibition of "O=C(Nc1ccc2nc3n(c(=O)c2c1)CCCCC3)c1ccccn1" and report it.
[A] 2.45% (inactive)

* * *

Experiment notes: unspecified inhibition readout at 50 µM (AID 740)
Reported conditions: unspecified screen
Hit rate of the full screen: of about 96,000 compounds, about 65 (0.07%) were called active. No stated cut-off is given here; in the data, active means inhibition above about 25%; inactive means the rest. Only a selection was taken, and actives are over-represented in it overall.
Permitted responses: active, inactive

[Q] What outcome does the record of this test show for Cc1cc(C)n(CC(O)Cn2c(C)c(C)c3ccccc32)n1 (stereo unspecified) ?
[A] inactive

[Q] What outcome does the record of this test show for "CN=C(Nc1cc(C)nn1CCC#N)c1ccc(F)cc1" ?
[A] inactive

[Q] What outcome does the record of this test show for "S=C(Nc1ccccc1)N1CCn2c1nc1ccccc12" ?
[A] active

[Q] What outcome does the record of this test show for "COc1cc2[nH]c(=O)n(CCC(=O)NC3CCCC3)c(=O)c2cc1OC" ?
[A] inactive

[Q] What outcome does the record of this test show for O=C1CC(C(=O)Nc2ccccc2)C2(CCCC2)O1 (stereo unspecified) ?
[A] inactive

[Q] What outcome does the record of this test show for "O=C(O)c1cc2nc(-c3ccc(F)cc3)cc(C(F)(F)F)n2n1" ?
[A] inactive
